Values were extracted from paper PMC4689322.

Biological target: T1, MBNL1 ZnF3/4 (Homo sapiens, UniProt Q9NR56-2 178-246)
T1 sequence: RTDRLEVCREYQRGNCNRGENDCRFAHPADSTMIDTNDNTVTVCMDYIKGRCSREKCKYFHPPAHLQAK
Assay: intrinsic tyrosine fluorescence quenching
observationType: Kd (nM)

>>> valuereported("UCGCUUUUCCCCUCCGCU (ssRNA) [hcTNT 18-nt (S10)]")
40
